Provenance of the data: paper PMC6345161

- System: MRSA (ATCC BAA-44)
- run_description: MRSA proliferation assay
- Type: cell-based, Staphylococcus aureus
measurement_type: inhibition of MRSA proliferation

INSERT INTO measurements (compound, obs_value) VALUES
  ('NCc1ccc(S(=O)(=O)Nc2ccc(-c3nc4cc(NS(=O)(=O)c5ccc(Cl)s5)ccc4o3)cc2)cc1 [20R]', 'only moderately active'),
  ('NCc1ccc(S(=O)(=O)Nc2ccc3oc(-c4ccc(NS(=O)(=O)c5ccc(Cl)s5)cc4)nc3c2)cc1 [20L]', 'only moderately active');
